Test system: PPARg:RXRa DBDmut IVT, anti-RXR (DBD mutation: RXRa K156A/R161A, NR concentration 270 nM, RXRa partner concentration 90 nM)
Experimental protocol: PBM binding z-score (relative to random genomic background probes); higher = stronger binding; sequences stand for … in GC…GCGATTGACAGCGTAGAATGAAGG
Assay endpoint: PBM binding z-score

# Sequence entry, PBM binding z-score
data = [
    ("CCGAGTAGGTTTTGGGGCATTCAGGCAACGGTGA", 0.795),
    ("TAGCCTAGGTCACGCGGGCCAGTATAGTGTCGGC", 2.95),
    ("GCTTGTAGATCAAGGTCAAGAAAGACTAAGCTAA", 2.14),
    ("CGAACTAGGTCAGGACAGGACAGTGAAGGATGAT", 7.58),
    ("TAGCCTAGGTCATGGGCCATTATACCACGCGAAC", 1.69),
    ("TAGCCTAGGTCAGATTGGGCCAGTATACGCTATA", 0.821),
]

Item ATCGAAAGGTCGACGAGGTGAATATACACCGTTT has what recorded PBM binding z-score?
0.98

// query PBM binding z-score value for entry TCATAGAGGTAAATGCTAGGTGAAAGTCCGATCT
2.05

Item under review: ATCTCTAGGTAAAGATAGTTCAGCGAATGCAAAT . Reported PBM binding z-score?
2.37

====

Test system: RARb homodimer (NR concentration 270 nM)
Experimental protocol: PBM binding z-score (relative to random genomic background probes); higher = stronger binding; sequences stand for … in GC…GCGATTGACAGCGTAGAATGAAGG
Listed next: entries and their corresponding PBM binding z-score.
The answer should be a number; do not append a unit.

The examples below pair each entry with its known result.
# Sequence entry, Val
rows = [
    ("GCTAACGGGTCAAAGGTTATAGCATGAATAGAAT", 3.09),
    ("GTACCAAGGTGAATAGGTCGTTCATGAGTAGGCG", 1.96),
    ("TATACAGGGTCAAAGCCCAGAGTACGAATGTCGA", 2.97),
]

Turning to the following sequence.
For the sequence ACTAGTTGGTCAGCTGAGGTTACACACAATTCGG , what PBM binding z-score is on record?
2.03

====

Test system: PPARa:RXRa (NR concentration 270 nM, RXRa partner concentration 90 nM)
Experimental protocol: PBM binding z-score (relative to random genomic background probes); higher = stronger binding; sequences stand for … in GC…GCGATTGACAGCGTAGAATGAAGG
Classify by measured PBM binding z-score: y if it is equal to or exceeds 2, n if it is smaller.

# Sequence entry, Answer label
measured = [
    ("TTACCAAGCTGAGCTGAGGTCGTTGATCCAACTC", "n"),
    ("ACTAGCAGGCCAAGGGTCACTGAAGATTAGTCCG", "y"),
    ("GTACCAAGGTGAATAGGTCGTTGGTGAGTAGGCG", "y"),
    ("CCAGCCAGGTGAGAAGGTAACTCAGCCTCGATTA", "n"),
    ("CCTTACGGGTCACTGACAGGTGATAGCATTTGGA", "y"),
]

Identify whether the reported PBM binding z-score of the following sequence is 2 or greater: CCTATTAGTTGACCATACGGGCAACCGAAGCTCG
n

Evaluate TCTTGTAGATCAAGCAGGTCAAGAAAGCCTGAGT : PBM binding z-score at minimum 2?
y

Determine whether measured PBM binding z-score meets or exceeds 2 for CATACAGGGTCAGCTCGGCCAGAGTAGGGACGGC
y

Check the entry CCTTACGGGTCACGAGGTTATAGCGCGACGAGCG : does PBM binding z-score equal or exceed 2?
y

Hi team, for CCTATTACTTGACCATAAGGGCAACCGAAGCTCG , is the recorded PBM binding z-score at or above 2?
n
